For each record, write down the corresponding IC50.
Biological target: UniProtKB P03372
Sequence (P03372 whole entry): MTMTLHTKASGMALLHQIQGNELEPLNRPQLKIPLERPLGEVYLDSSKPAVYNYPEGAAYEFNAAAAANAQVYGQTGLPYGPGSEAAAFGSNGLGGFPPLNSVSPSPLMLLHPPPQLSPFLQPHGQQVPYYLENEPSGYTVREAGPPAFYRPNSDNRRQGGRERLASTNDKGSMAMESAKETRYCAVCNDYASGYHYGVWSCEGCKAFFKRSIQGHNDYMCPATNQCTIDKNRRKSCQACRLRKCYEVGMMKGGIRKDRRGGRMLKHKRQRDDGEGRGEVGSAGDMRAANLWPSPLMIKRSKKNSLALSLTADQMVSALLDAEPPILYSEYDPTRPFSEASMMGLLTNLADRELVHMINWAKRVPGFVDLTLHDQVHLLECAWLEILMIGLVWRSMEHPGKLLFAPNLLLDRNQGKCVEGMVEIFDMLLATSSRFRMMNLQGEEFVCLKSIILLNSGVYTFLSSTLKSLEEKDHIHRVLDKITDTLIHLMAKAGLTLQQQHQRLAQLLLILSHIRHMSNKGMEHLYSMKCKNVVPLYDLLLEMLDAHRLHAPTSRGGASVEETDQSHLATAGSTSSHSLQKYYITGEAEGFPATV
Assay: Downregulation of ERalpha in human MCF-7 cells assessed as reduction of estradiol-induced GREB1 mRNA levels after 24 hrs by RT-PCR method
Format: cell-based
Please state the value followed by its unit.

Input Smiles | IC50
O=C(O)/C=C/c1ccc(C(=C2C3CC4CC(C3)CC2C4)c2ccc(O)cc2)cc1 | 500 nM

// switching to the query compound
Name the recorded IC50 for `O=C(/C=C/c1ccc(C(=C2C3CC4CC(C3)CC2C4)c2ccc(O)cc2)cc1)NCCCO` .
50 nM

----------
molecular target: Estrogen receptor (Homo sapiens) (UniProt P03372); experiment: Downregulation of ER-alpha levels in ER-positive human MCF-7 cells at 3 uM after 24 hrs by in-cell Western assay
Calls of active or inactive are those of the source. The rule behind the calls is not given here.
Hello, when you answer, please use one of the following outcomes: 1 = active, -1 = inactive

Examples with answers:
Input Smiles | Class Assignment
CCCNS(=O)(=O)/C=C/c1ccc(C(=C2C3CC4CC(C3)CC2C4)c2ccc(O)cc2)cc1 | 1
O=C(/C=C/c1ccc(C(=C2C3CC4CC(C3)CC2C4)c2ccc(O)cc2)cc1)NCC(F)(F)F | -1
N#C/C=C/c1ccc(C(=C2C3CC4CC(C3)CC2C4)c2ccc(O)cc2)cc1 | 1

Entry `CCCCNC(=O)/C=C/c1ccc(C(=C2C3CC4CC(C3)CC2C4)c2ccc(O)cc2)cc1` : call = ?
1

Lab log entry: `O=C(/C=C/c1ccc(C(=C2C3CC4CC(C3)CC2C4)c2ccc(O)cc2)cc1)OCCO` — outcome as called in the assay?
-1

Hello, I am checking results. What call was entered for `O=C(/C=C/c1ccc(C(=C2C3CC4CC(C3)CC2C4)c2ccc(O)cc2)cc1)NCCO` ?
1

Write down the call the test reported for this compound. Item: `NCCCNC(=O)/C=C/c1ccc(C(=C2C3CC4CC(C3)CC2C4)c2ccc(O)cc2)cc1`
1

What did this assay record as the result for `O=C(/C=C/c1ccc(C(=C2C3CC4CC(C3)CC2C4)c2ccc(O)cc2)cc1)OCCCO` ?
-1

Check the results log: what was the call for `COC(=O)/C=C/c1ccc(C(=C2C3CC4CC(C3)CC2C4)c2ccc(O)cc2)cc1` ?
-1

----------
Biological target: Estrogen receptor (Homo sapiens)
Sequence (whole entry): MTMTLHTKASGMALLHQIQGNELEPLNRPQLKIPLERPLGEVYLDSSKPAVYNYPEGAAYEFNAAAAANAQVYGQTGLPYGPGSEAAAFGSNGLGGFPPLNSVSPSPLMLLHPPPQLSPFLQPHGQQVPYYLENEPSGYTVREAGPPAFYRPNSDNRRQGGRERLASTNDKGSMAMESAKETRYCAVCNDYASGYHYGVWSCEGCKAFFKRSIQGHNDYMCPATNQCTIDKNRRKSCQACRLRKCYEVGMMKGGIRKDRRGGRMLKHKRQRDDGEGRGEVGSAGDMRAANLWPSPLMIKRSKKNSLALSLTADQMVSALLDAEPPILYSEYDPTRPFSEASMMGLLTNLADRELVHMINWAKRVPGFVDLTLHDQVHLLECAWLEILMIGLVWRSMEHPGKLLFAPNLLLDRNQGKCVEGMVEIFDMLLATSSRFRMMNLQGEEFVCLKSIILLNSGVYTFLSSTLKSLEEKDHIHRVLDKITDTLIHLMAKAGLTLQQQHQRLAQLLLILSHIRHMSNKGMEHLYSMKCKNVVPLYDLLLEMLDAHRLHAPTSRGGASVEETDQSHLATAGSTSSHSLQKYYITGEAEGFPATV
Assay: Displacement of [3H]estradiol from full-length human ERalpha receptor by scintillation counting relative to estradiol
Give RBA for every item shown.
Numbers only, in %.

Some compounds with recorded RBA:
Input Smiles | RBA [%]
NCCCNC(=O)/C=C/c1ccc(C(=C2C3CC4CC(C3)CC2C4)c2ccc(O)cc2)cc1 | 54
CCCNS(=O)(=O)/C=C/c1ccc(C(=C2C3CC4CC(C3)CC2C4)c2ccc(O)cc2)cc1 | 52
CN(C)CCNC(=O)/C=C/c1ccc(C(=C2C3CC4CC(C3)CC2C4)c2ccc(O)cc2)cc1 | 57
CCCCN(C)C(=O)/C=C/c1ccc(C(=C2C3CC4CC(C3)CC2C4)c2ccc(O)cc2)cc1 | 28
O=C(/C=C/c1ccc(C(=C2C3CC4CC(C3)CC2C4)c2ccc(O)cc2)cc1)NCCCO | 47
CCCCCNC(=O)/C=C/c1ccc(C(=C2C3CC4CC(C3)CC2C4)c2ccc(O)cc2)cc1 | 27

State recorded RBA for all listed compounds.
1. O=C(/C=C/c1ccc(C(=C2C3CC4CC(C3)CC2C4)c2ccc(O)cc2)cc1)NCCCCO
2. O=C(O)/C=C/c1ccc(C(=C2C3CC4CC(C3)CC2C4)c2ccc(O)cc2)cc1
3. CCCNC(=O)/C=C/c1ccc(C(=C2C3CC4CC(C3)CC2C4)c2ccc(O)cc2)cc1
4. CCCCCC(=O)/C=C/c1ccc(C(=C2C3CC4CC(C3)CC2C4)c2ccc(O)cc2)cc1
5. CCCCNC(=O)/C=C/c1ccc(C(=C2C3CC4CC(C3)CC2C4)c2ccc(O)cc2)cc1

[56, 51, 18, 12, 28]

----------
molecular target: Estrogen receptor (Homo sapiens, UniProt P03372)
pKi: −log10 of the molar value.
Please use 1 whenever pKi is not below 9, and -1 whenever it is.

Study these solved cases before continuing.
Input Smiles | Class Assignment
CCOC(=O)/C=C/c1ccc(C(=C2C3CC4CC(C3)CC2C4)c2ccc(O)cc2)cc1 | -1
O=C(/C=C/c1ccc(C(=C2C3CC4CC(C3)CC2C4)c2ccc(O)cc2)cc1)NCCCCO | 1

Please find the next compound below.
Check if pKi >= 9 (inclusive). Item: `CN(C)CCNC(=O)/C=C/c1ccc(C(=C2C3CC4CC(C3)CC2C4)c2ccc(O)cc2)cc1`
1

----------
target: Estrogen receptor (Homo sapiens) (UniProt P03372); assay: Displacement of [3H]estradiol from full-length human ERalpha receptor by scintillation counting relative to estradiol
y if RBA is below 30%. n if not; exact matches included in n.

These recorded examples may help you get a feel for the data.
Input Smiles | Class Assignment
CCOC(=O)/C=C/c1ccc(C(=C2C3CC4CC(C3)CC2C4)c2ccc(O)cc2)cc1 | y
O=C(/C=C/c1ccc(C(=C2C3CC4CC(C3)CC2C4)c2ccc(O)cc2)cc1)OCCCO | y
O=C(/C=C/c1ccc(C(=C2C3CC4CC(C3)CC2C4)c2ccc(O)cc2)cc1)N(CCO)CCO | n
O=C(/C=C/c1ccc(C(=C2C3CC4CC(C3)CC2C4)c2ccc(O)cc2)cc1)OCCO | n

Turning now to a further record.
For `N#C/C=C/c1ccc(C(=C2C3CC4CC(C3)CC2C4)c2ccc(O)cc2)cc1` , is the recorded RBA below the cut-off of 30%?
y
